This collection of values is drawn from PubChem BioAssay (NCI).

# Test system: MDA-MB-231 breast
# Assay Remarks: NCI tumour cell line growth inhibition, 48 h
What TGI was measured for each of the following?

Query: Report value: TGI, system: MDA-MB-231 breast, compound: O=C(/C=C/c1ccccc1)c1ccccc1
Result: > 10 µM

Query: Report value: TGI, system: MDA-MB-231 breast, compound: Cc1ccc(CC[P+](=O)CCc2ccc(C)nc2)cn1
Result: > 100 µM

Query: Report value: TGI, system: MDA-MB-231 breast, compound: NCCCN1CCN(CCCNc2ccc3nnn4c5ccccc5c(=O)c2c34)CC1
Result: 29.1 µM

Query: Report value: TGI, system: MDA-MB-231 breast, compound: C=CCNC(=S)N=Nc1c(O)[nH]c2ccc([N+](=O)[O-])cc12
Result: > 100 µM

Query: Report value: TGI, system: MDA-MB-231 breast, compound: O=C(/C(=C\c1c(-c2ccccc2)[nH]c2ccccc12)S(=O)(=O)c1ccccc1)c1ccccc1
Result: > 100 µM

Query: Report value: TGI, system: MDA-MB-231 breast, compound: Oc1[nH]c2ccc(Br)cc2c1N=NC(=S)Nc1ccc(F)cc1
Result: 35.5 µM

Query: Report value: TGI, system: MDA-MB-231 breast, compound: NNCCc1ccc(NC(=O)CCCc2ccc(C(=O)Nc3ccccc3N)cc2)cc1
Result: > 100 µM

Query: Report value: TGI, system: MDA-MB-231 breast, compound: Cc1cc(Nc2nc(-c3cn(-c4ccc(Cl)cc4)nn3)nc3ccccc23)n[nH]1
Result: > 50 µM

Query: Report value: TGI, system: MDA-MB-231 breast, compound: Cc1cn(-c2cc(C(=O)Nc3cccc(-n4ccc5c(NC(=O)c6ccccc6)nccc54)c3)cc(C(F)(F)F)c2)cn1
Result: 3.62 µM

Query: Report value: TGI, system: MDA-MB-231 breast, compound: Cc1ccc(OCCn2cc(Nc3ccccc3)c(=O)n(CCOc3ccc(C)cc3)c2=O)cc1
Result: > 100 µM

Query: Report value: TGI, system: MDA-MB-231 breast, compound: COC(=O)CCc1cc(OC)c2c(c1)[C@H](C(=O)OC)[C@@H](c1ccc(O)c(OC)c1)O2
Result: > 100 µM

Query: Report value: TGI, system: MDA-MB-231 breast, compound: NNC1=N/C(=C\c2ccco2)C(Cl)=N1
Result: > 100 µM

Query: Report value: TGI, system: MDA-MB-231 breast, compound: CCCCn1cnc2c(c(CC#N)nn2-c2ccccc2)c1=N
Result: > 100 µM

Query: Report value: TGI, system: MDA-MB-231 breast, compound: ClCCN(CCCl)c1ccc(CNc2ccccc2)cc1
Result: > 100 µM

Query: Report value: TGI, system: MDA-MB-231 breast, compound: O=C(c1ccco1)c1c(C(F)(F)F)n([O-])c2ccc(C(F)(F)F)cc2[n+]1=O
Result: 0.768 µM

Query: Report value: TGI, system: MDA-MB-231 breast, compound: CCCCCCCCCCNC(=O)CI
Result: 3.29 µM

Query: Report value: TGI, system: MDA-MB-231 breast, compound: CC(=O)Oc1cc(C(F)(F)F)ccc1C(=O)OC1(C)OC(=O)c2ccc(C(F)(F)F)cc2O1 (stereo unspecified)
Result: > 100 µM

Query: Report value: TGI, system: MDA-MB-231 breast, compound: CCOC(=O)C1(C(=O)OCC)COS(=O)OC1
Result: 35.3 µM

Query: Report value: TGI, system: MDA-MB-231 breast, compound: C[C@]12CC[C@@H]3c4ccc(O)cc4CC[C@H]3[C@@H]1C/C(=C\c1ccncc1)[C@@H]2O
Result: 41.2 µM

Query: Report value: TGI, system: MDA-MB-231 breast, compound: CCCC(=O)C1=C(O)C(Cc2c(O)c(C)c(O)c(C(=O)CCC)c2O)=C(O)C(C)(C)C1=O
Result: > 50 µM

Query: Report value: TGI, system: MDA-MB-231 breast, compound: COc1cc(/C=C\c2cc(OC)c(OC)c(OC)c2)cc(N/C=C\C(=O)c2c[nH]c3ccccc23)c1OC
Result: 4.11 µM

###

# Tested on: A549 NSCLC
# Assay Remarks: NCI tumour cell line growth inhibition, 48 h
What TGI was measured for each of the following?

Query: // fetch TGI given entry COc1ccc(-c2nn(-c3cccc(Cl)c3)cc2-c2cc(-c3ccccc3)[nH]c(=O)c2C#N)cc1
Result: > 50 µM

Query: // fetch TGI given entry CCC1=CC2CN3Cn4c(c(COCc5c6n(c7ccccc57)CN5CC7C=C(CC)C5C6(C(=O)OC)C7)c5ccccc54)C(C(=O)OC)(C2)C13
Result: > 100 µM

Query: // fetch TGI given entry CC(C(=O)N1C(=O)N(C(=O)C(C)C(O)c2ccccc2)C2CCCCC21)C(O)c1ccccc1 (stereo not given)
Result: > 100 µM

Query: // fetch TGI given entry Cc1cc2c(c(C(N)=O)c1C)-c1ccccc1C2=O
Result: > 100 µM

Query: // fetch TGI given entry CCN(CC)CCCNC(=O)c1ccc([N+](=O)[O-])cc1O
Result: > 100 µM

###

# System: SK-MEL-28 melanoma
# Assay Remarks: NCI tumour cell line growth inhibition, 48 h
Quantity: TGI

Query: // fetch TGI given entry Oc1[nH]c2ccc(Br)cc2c1N=NC(=S)Nc1ccc(F)cc1
Result: 39.8 µM

Query: // fetch TGI given entry O=[N+]([O-])c1cccc(C2=NOC(C3CCCCC3)C2)c1 (stereo not given)
Result: > 100 µM

Query: // fetch TGI given entry Nc1cc(Br)c(-c2nnc(CCC(=O)c3nc4ccccc4[nH]3)o2)c(Br)c1
Result: 79 µM

Query: // fetch TGI given entry CC(=O)c1cccn1/C=C(\OC(=O)OC(C)(C)C)c1ccc[nH]1
Result: > 100 µM

Query: // fetch TGI given entry CC1=NN(C(=O)CC(=O)Nc2ccccc2F)C(=O)C1N=Nc1ccccc1[N+](=O)[O-] (stereo not given)
Result: > 100 µM

Query: // fetch TGI given entry CCNC(=O)/C(=C/c1ccc(OC)cc1)c1cc(OC)c(OC)c(OC)c1
Result: > 100 µM

Query: // fetch TGI given entry CCOP(=O)(OCC)C(C(=O)OC)C(=O)C(=O)Nc1ccc(Cl)cc1Cl (stereo not given)
Result: > 100 µM

Query: // fetch TGI given entry C(=Nc1ccc(-c2nc3ccccc3o2)cc1)c1ccco1
Result: > 100 µM

Query: // fetch TGI given entry COc1ccc(C(=O)c2cc(OC)c(OC)c(OC)c2)cc1OC
Result: > 100 µM

Query: // fetch TGI given entry CCCC/C(=C\C1=C(C)C(=O)C(OC)=C(OC)C1=O)C(=O)O
Result: > 100 µM

###

# System: COLO 205 colon
# Assay Remarks: NCI tumour cell line growth inhibition, 48 h
Given measured TGI, output Fulfilled if it is greater than or equal to 30 µM and Not fulfilled if not.

Query: Given the entry NNCCc1ccc(NC(=O)CCCc2ccc(C(=O)Nc3ccccc3N)cc2)cc1 , answer whether its TGI meets or surpasses 30 µM.
Result: Fulfilled

Query: Given the entry CO[C@H]1Nc2c(ccc(C)c2O)C(=O)N2C=C(/C=C/C(N)=O)C[C@@H]12 , answer whether its TGI meets or surpasses 30 µM.
Result: Not fulfilled

Query: Given the entry Nc1nc(Cl)cc(NCC2(CO)CCC(CCc3ccccc3)C2)n1 (stereo not drawn) , answer whether its TGI meets or surpasses 30 µM.
Result: Not fulfilled

Query: Given the entry CN(C(=O)c1ccc([N+](=O)[O-])cc1)c1ccccc1 , answer whether its TGI meets or surpasses 30 µM.
Result: Fulfilled

Query: Given the entry S=C(/N=c1\sc(Nc2ccc(Cl)cc2)nc2sc3c(c12)CCN(N1CCc2c(sc4nc(Nc5ccc(Cl)cc5)s/c(=N\C(=S)Nc5ccc(Cl)cc5)c24)C1)C3)Nc1ccc(Cl)cc1 , answer whether its TGI meets or surpasses 30 µM.
Result: Fulfilled

Query: Given the entry COc1ccc(-c2oc(/C=N/NC(N)=S)c([N+](=O)[O-])c2-c2ccc(OC)c(OC)c2)cc1OC , answer whether its TGI meets or surpasses 30 µM.
Result: Fulfilled

Query: Given the entry COc1cc(/C=C2\[C@H]3c4c(c(OC)c(C)c(OC)c4OC)CC(C(=O)N2Cc2ccccc2)N3C)c(OC)c(C)c1OC , answer whether its TGI meets or surpasses 30 µM.
Result: Fulfilled

Query: Given the entry Cc1cn(-c2cc(C(=O)Nc3cccc(-n4ccc5c(NC(=O)c6ccccc6)nccc54)c3)cc(C(F)(F)F)c2)cn1 , answer whether its TGI meets or surpasses 30 µM.
Result: Not fulfilled

###

# System: DMS 114 small cell lung
# Assay Remarks: NCI tumour cell line growth inhibition, 48 h
Quantity: TGI

Query: Report value: TGI, system: DMS 114 small cell lung, molecule: CN(C)C(=S)SSC(=S)N(C)C
Result: 17.4 µM

Query: Report value: TGI, system: DMS 114 small cell lung, molecule: Cc1cccc(C2=C/C(=C(\SS/C(C(=O)c3ccc(OCC(=O)O)c(Cl)c3Cl)=C3\C=C(c4cccc(C)c4)SS3)C(=O)c3ccc(OCC(=O)O)c(Cl)c3Cl)SS2)c1
Result: 17.7 µM

Query: Report value: TGI, system: DMS 114 small cell lung, molecule: C=Cc1ccc(C)[n+](C[Si](C)(C)O[Si](C)(C)C[n+]2cc(C=C)ccc2C)c1
Result: > 100 µM

Query: Report value: TGI, system: DMS 114 small cell lung, molecule: NC(=O)C(=O)CC(=O)c1ccccc1NC1=CC(=O)C(=O)c2ccccc21
Result: 68.2 µM

Query: Report value: TGI, system: DMS 114 small cell lung, molecule: Cn1c(=O)nc2n(-c3cc(C(F)(F)F)cc(C(F)(F)F)c3)c3ccccc3nc-2c1=O
Result: > 100 µM

Query: Report value: TGI, system: DMS 114 small cell lung, molecule: O=c1[nH]cnc(NC2C=C(CO)C(O)C2O)c1[N+](=O)[O-] (stereo not given)
Result: > 84.7 µM

Query: Report value: TGI, system: DMS 114 small cell lung, molecule: O=C(CC(=O)C1CCOC1=O)C(=O)Nc1cccc(Cl)c1 (stereo not given)
Result: > 100 µM

Query: Report value: TGI, system: DMS 114 small cell lung, molecule: CCOP(=O)(OCC)C(C(=O)OC)C(=O)C(=O)Nc1ccc(Cl)cc1Cl (stereo not given)
Result: > 100 µM

Query: Report value: TGI, system: DMS 114 small cell lung, molecule: CC(C)(C)c1ccc2c(c1)S(=O)(=O)Nc1ccc(Cl)cc1NS(=O)(=O)c1cc(C(C)(C)C)ccc1OCCOCCOCCO2
Result: > 100 µM

Query: Report value: TGI, system: DMS 114 small cell lung, molecule: CCN(CC)CCCNC(=O)c1ccc([N+](=O)[O-])cc1O
Result: > 100 µM
